System: Chinese hamster ovary cells
Test: Uptake of glycosides by Chinese hamster ovary cells, fluorescence assay
Settings: CHO cells, 37° C.; FIG. 1 and 2 (100 μM in FIG. 2)
measurementKind: Uptake (in words)

OC[C@H]1O[C@@H](O[C@H]2[C@@H](O)[C@@H](CO)O[C@@H](Oc3ccc4ccccc4c3)[C@@H]2O)[C@H](O)[C@@H](O)[C@H]1O
not taken up al all
OC[C@H]1O[C@@H](O[C@@H]2CO[C@@H](Oc3ccc4ccccc4c3)[C@H](O)[C@H]2O)[C@H](O)[C@@H](O)[C@H]1O
not taken up al all
